Data origin, for the record: the supplement of paper PMC10899765

System: MCF10A
Assay: 5+ nucleoli phenotype percent effect (relative to siNT 0% and siKIF11 100%); higher = more cells with five or more nucleoli
Conditions: 20 nM; 72 h

[
  {
    "primary-sequence": "CAGUUCAGAAGUGUUCCUGAGU [hsa-miR-5000-5p]",
    "measured-target": "MCF10A",
    "5+ nucleoli phenotype percent effect, %": -19.1
  },
  {
    "primary-sequence": "CAAUCACUAACUCCACUGCCAU [hsa-miR-34b-3p]",
    "measured-target": "MCF10A",
    "5+ nucleoli phenotype percent effect, %": 11
  },
  {
    "primary-sequence": "UCCCACUACUUCACUUGUGA [hsa-miR-4301]",
    "measured-target": "MCF10A",
    "5+ nucleoli phenotype percent effect, %": 60.9
  },
  {
    "primary-sequence": "GCCGGACAAGAGGGAGG [hsa-miR-4442]",
    "measured-target": "MCF10A",
    "5+ nucleoli phenotype percent effect, %": 25.4
  },
  {
    "primary-sequence": "GGUCUAGGCCCGGUGAGAGACUC [hsa-miR-8078]",
    "measured-target": "MCF10A",
    "5+ nucleoli phenotype percent effect, %": 10
  },
  {
    "primary-sequence": "AGCUGGUAAAAUGGAACCAAAU [hsa-miR-133a-5p]",
    "measured-target": "MCF10A",
    "5+ nucleoli phenotype percent effect, %": -4.69
  },
  {
    "primary-sequence": "ACAGUCUGCUGAGGUUGGAGC [hsa-miR-622]",
    "measured-target": "MCF10A",
    "5+ nucleoli phenotype percent effect, %": -4.39
  },
  {
    "primary-sequence": "AGACCAUGGGUUCUCAUUGU [hsa-miR-591]",
    "measured-target": "MCF10A",
    "5+ nucleoli phenotype percent effect, %": 10.2
  },
  {
    "primary-sequence": "CUAGUGCUCUCCGUUACAAGUA [hsa-miR-4473]",
    "measured-target": "MCF10A",
    "5+ nucleoli phenotype percent effect, %": 18
  },
  {
    "primary-sequence": "UCUAGGCUGGUACUGCUGA [hsa-miR-645]",
    "measured-target": "MCF10A",
    "5+ nucleoli phenotype percent effect, %": 7.45
  },
  {
    "primary-sequence": "AAAGAUGGACAAUUGGCUAAAU [hsa-miR-4662b]",
    "measured-target": "MCF10A",
    "5+ nucleoli phenotype percent effect, %": -25.7
  },
  {
    "primary-sequence": "AUGUGCCUGAGGGAGUAAGACA [hsa-miR-550b-2-5p]",
    "measured-target": "MCF10A",
    "5+ nucleoli phenotype percent effect, %": -13.6
  },
  {
    "primary-sequence": "UCUGGGUGCAGUGGGGGUU [hsa-miR-6776-5p]",
    "measured-target": "MCF10A",
    "5+ nucleoli phenotype percent effect, %": -32.7
  },
  {
    "primary-sequence": "UGAGGGGCCUCAGACCGAGCUUUU [hsa-miR-3184-5p]",
    "measured-target": "MCF10A",
    "5+ nucleoli phenotype percent effect, %": 38.7
  },
  {
    "primary-sequence": "AUACACAUACACGCAACACACAU [hsa-miR-466]",
    "measured-target": "MCF10A",
    "5+ nucleoli phenotype percent effect, %": -1.51
  },
  {
    "primary-sequence": "UGUGGGAUCUGGAGGCAUCUGG [hsa-miR-4654]",
    "measured-target": "MCF10A",
    "5+ nucleoli phenotype percent effect, %": -29.4
  },
  {
    "primary-sequence": "AAUAAUACAUGGUUGAUCUUU [hsa-miR-369-3p]",
    "measured-target": "MCF10A",
    "5+ nucleoli phenotype percent effect, %": 11.7
  },
  {
    "primary-sequence": "AGCAGCAUUGUACAGGGCUAUCA [hsa-miR-107]",
    "measured-target": "MCF10A",
    "5+ nucleoli phenotype percent effect, %": -26.1
  },
  {
    "primary-sequence": "AGACCCUGGUCUGCACUCUAUC [hsa-miR-504]",
    "measured-target": "MCF10A",
    "5+ nucleoli phenotype percent effect, %": 3.4
  },
  {
    "primary-sequence": "CUCUAGAGGGAAGCGCUUUCUG [hsa-miR-519a-5p]",
    "measured-target": "MCF10A",
    "5+ nucleoli phenotype percent effect, %": -2.96
  },
  {
    "primary-sequence": "UGUCAGUUUGUCAAAUACCCCA [hsa-miR-223-3p]",
    "measured-target": "MCF10A",
    "5+ nucleoli phenotype percent effect, %": 7.19
  },
  {
    "primary-sequence": "AACUCUGUCUUCACUCAUGAGU [hsa-miR-3664-5p]",
    "measured-target": "MCF10A",
    "5+ nucleoli phenotype percent effect, %": 6.12
  },
  {
    "primary-sequence": "UUCUGGAUAACAUGCUGAAGCU [hsa-miR-5706]",
    "measured-target": "MCF10A",
    "5+ nucleoli phenotype percent effect, %": 51.3
  },
  {
    "primary-sequence": "GUGAGUGGGAGCCCCAGUGUGUG [hsa-miR-1238-5p]",
    "measured-target": "MCF10A",
    "5+ nucleoli phenotype percent effect, %": 22.1
  },
  {
    "primary-sequence": "UGGAUUUUUGGAUCAGGGA [hsa-miR-1290]",
    "measured-target": "MCF10A",
    "5+ nucleoli phenotype percent effect, %": -26.7
  },
  {
    "primary-sequence": "UUGCUAAGUAGGCUGAGAUUGA [hsa-miR-4639-5p]",
    "measured-target": "MCF10A",
    "5+ nucleoli phenotype percent effect, %": -11.6
  },
  {
    "primary-sequence": "UUCACAGGGAGGUGUCAU [hsa-miR-513a-5p]",
    "measured-target": "MCF10A",
    "5+ nucleoli phenotype percent effect, %": -25.5
  },
  {
    "primary-sequence": "CAGCCCGGAUCCCAGCCCACUU [hsa-miR-3940-3p]",
    "measured-target": "MCF10A",
    "5+ nucleoli phenotype percent effect, %": -8.21
  },
  {
    "primary-sequence": "CACACAGGAAAAGCGGGGCCCUG [hsa-miR-6768-5p]",
    "measured-target": "MCF10A",
    "5+ nucleoli phenotype percent effect, %": 24.4
  },
  {
    "primary-sequence": "AUGAUCCAGGAACCUGCCUCU [hsa-miR-640]",
    "measured-target": "MCF10A",
    "5+ nucleoli phenotype percent effect, %": -28.9
  },
  {
    "primary-sequence": "CCUGAUCCCACAGCCCACCU [hsa-miR-3151-3p]",
    "measured-target": "MCF10A",
    "5+ nucleoli phenotype percent effect, %": 2.64
  },
  {
    "primary-sequence": "CGGGCAUGCUGGGAGAGACUUU [hsa-miR-6862-5p]",
    "measured-target": "MCF10A",
    "5+ nucleoli phenotype percent effect, %": -13
  },
  {
    "primary-sequence": "AAACACCAUUGUCACACUCCAC [hsa-miR-3591-3p]",
    "measured-target": "MCF10A",
    "5+ nucleoli phenotype percent effect, %": -27
  },
  {
    "primary-sequence": "UACUGCAGACGUGGCAAUCAUG [hsa-miR-509-3-5p]",
    "measured-target": "MCF10A",
    "5+ nucleoli phenotype percent effect, %": -30.4
  },
  {
    "primary-sequence": "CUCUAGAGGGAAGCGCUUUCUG [hsa-miR-523-5p]",
    "measured-target": "MCF10A",
    "5+ nucleoli phenotype percent effect, %": -3.36
  },
  {
    "primary-sequence": "AGACACAUUUGGAGAGGGACCC [hsa-miR-642b-3p]",
    "measured-target": "MCF10A",
    "5+ nucleoli phenotype percent effect, %": -6.68
  },
  {
    "primary-sequence": "AUGGAUAAGGCUUUGGCUU [hsa-miR-1261]",
    "measured-target": "MCF10A",
    "5+ nucleoli phenotype percent effect, %": -12.9
  },
  {
    "primary-sequence": "ACGGUGCUGGAUGUGGCCUUU [hsa-miR-1250]",
    "measured-target": "MCF10A",
    "5+ nucleoli phenotype percent effect, %": -44.5
  },
  {
    "primary-sequence": "AACUGGCCUACAAAGUCCCAGU [hsa-miR-193a-3p]",
    "measured-target": "MCF10A",
    "5+ nucleoli phenotype percent effect, %": -15.2
  },
  {
    "primary-sequence": "UGGCCCGGCGACGUCUCACGGUC [hsa-miR-4745-3p]",
    "measured-target": "MCF10A",
    "5+ nucleoli phenotype percent effect, %": 45
  },
  {
    "primary-sequence": "UUGGGAUCAUUUUGCAUCCAUA [hsa-miR-450b-3p]",
    "measured-target": "MCF10A",
    "5+ nucleoli phenotype percent effect, %": -2.46
  },
  {
    "primary-sequence": "AAUUUACUCUGCAAUCUUCUCC [hsa-miR-4699-3p]",
    "measured-target": "MCF10A",
    "5+ nucleoli phenotype percent effect, %": -0.943
  },
  {
    "primary-sequence": "AACCACUUUCUUUGCUCAUCCA [hsa-miR-1255b-2-3p]",
    "measured-target": "MCF10A",
    "5+ nucleoli phenotype percent effect, %": -17.2
  },
  {
    "primary-sequence": "UGUUCCUCUGUCUCCCAGAC [hsa-miR-4326]",
    "measured-target": "MCF10A",
    "5+ nucleoli phenotype percent effect, %": -25.5
  },
  {
    "primary-sequence": "CAGGUCACGUCUCUGCAGUUAC [hsa-miR-370-5p]",
    "measured-target": "MCF10A",
    "5+ nucleoli phenotype percent effect, %": 5.92
  },
  {
    "primary-sequence": "UUCCGCCAGUCGGUGGCCGG [hsa-miR-6084]",
    "measured-target": "MCF10A",
    "5+ nucleoli phenotype percent effect, %": 0.691
  },
  {
    "primary-sequence": "UUUCCGGCUCGCGUGGGUGUGU [hsa-miR-1180]",
    "measured-target": "MCF10A",
    "5+ nucleoli phenotype percent effect, %": -27.5
  },
  {
    "primary-sequence": "AGUAUGUUCUUCCAGGACAGAAC [hsa-miR-567]",
    "measured-target": "MCF10A",
    "5+ nucleoli phenotype percent effect, %": 34.9
  }
]
